# testedSystem: Stimulator of interferon genes protein (Homo sapiens, UniProt Q86WV6)
# Sequence (Q86WV6 whole entry): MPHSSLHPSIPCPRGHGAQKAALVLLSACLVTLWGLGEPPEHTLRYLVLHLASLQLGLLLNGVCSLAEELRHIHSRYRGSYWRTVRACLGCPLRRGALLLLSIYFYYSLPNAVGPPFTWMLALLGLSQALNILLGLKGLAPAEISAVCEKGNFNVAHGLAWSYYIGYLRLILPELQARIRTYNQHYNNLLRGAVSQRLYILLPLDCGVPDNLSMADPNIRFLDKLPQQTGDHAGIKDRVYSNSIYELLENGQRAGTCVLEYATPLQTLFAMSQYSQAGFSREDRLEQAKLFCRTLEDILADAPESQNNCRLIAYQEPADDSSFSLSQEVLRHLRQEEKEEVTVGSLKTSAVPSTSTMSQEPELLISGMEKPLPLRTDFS
# testSummary: Agonist activity at wild type STING (unknown origin) expressed in HEK293T cells preincubated for 30 mins followed by washout and measured after 6.5 hrs by Bright-glo luciferase assay
# Assay type: cell-based
# pEC50 values compiled below
Scale: pEC50 equals -log10([C]), with [C] in mol/L.

Some solved cases for reference:
compound	pEC50
CC(C)OC(=O)OCOP1(=O)/C=C/[C@H]2O[C@@H](n3cnc4c(N)ncnc43)[C@H](F)[C@@H]2OP(=O)(OCOC(=O)OC(C)C)OC[C@H]2O[C@@H](n3cnc4c(N)ncnc43)[C@H](F)[C@@H]2O1 (stereo in doubt; 12C)	6.60
CC(C)(C)C(=O)OCOP1(=O)/C=C/[C@H]2O[C@@H](n3cnc4c(N)ncnc43)C[C@@H]2OP(=O)(OCOC(=O)C(C)(C)C)OC[C@H]2O[C@@H](n3cnc4c(N)ncnc43)[C@H](F)[C@@H]2O1 (stereo in doubt; 24C)	6.68
CC(C)(C)C(=O)OCOP1(=O)/C=C/[C@H]2O[C@@H](n3cnc4c(N)ncnc43)C[C@@H]2OP(=O)(OCOC(=O)C(C)(C)C)OC[C@H]2O[C@@H](n3cnc4c(N)ncnc43)[C@H](F)[C@@H]2O1 (stereo in doubt; 24A)	5.00

// moving on: another record for pEC50
Query: Can you look up the measured pEC50 of CC(C)(C)C(=O)OCOP1(=O)/C=C/[C@H]2O[C@@H](n3cnc4c(N)ncnc43)C[C@@H]2OP(=O)(OCOC(=O)C(C)(C)C)OC[C@H]2O[C@@H](n3cnc4c(N)ncnc43)[C@H](F)[C@@H]2O1 (stereo in doubt; 24B) for me?
Result: 6.26
